System: RXF 393
Assay: NCI tumour cell line growth inhibition, 48 h
Calls of active or inactive are those of the source. Cut-off read from the data, not from the text of the source: active = GI50 up to about 1.1 µM and inactive = higher.
Hi there, use one of these labels in your reply, thanks! active, inactive

Recorded test outcome, item CC(=O)OC1/C(=C/c2ccc([N+](=O)[O-])cc2)C[C@H]2[C@@H]3CC=C4C[C@@H](OC(C)=O)CC[C@]4(C)[C@H]3CC[C@]12C (stereo partly drawn)
inactive

Recorded test outcome, item CNC(=O)CNC(=O)N(C[C@@H]1CCCN1C(=O)[C@H](CC(C)C)NC(=O)OC(C)(C)C)C(C)C
inactive

Recorded test outcome, item CO[C@H]1c2cccc3cccc(c23)[C@@H]1n1[nH]c(=O)n(C(C)(C)C)c1=O
inactive

---

# GI50 per record follows
Tested on: TK-10
Assay: NCI tumour cell line growth inhibition, 48 h
The source made the active and inactive calls. Cut-off read from the data, not from the text of the source: active = GI50 up to about 1.1 µM and inactive = higher.

Below are worked cases with known answers.
- COMPOUND: "CC1=C(CC2C(=O)N(c3ccccc3)S(=O)(=O)NC2C)C(=O)N(c2ccccc2)S(=O)(=O)N1C (stereo not given)"
  TESTED ON: "TK-10"
  VALUE: "> 100 µM (inactive)"
- COMPOUND: "CC1(C)CC(O)CC(C)(C)N1O [TEMPOL HYDROXYLAMINE]"
  TESTED ON: "TK-10"
  VALUE: "> 100 µM (inactive)"
- COMPOUND: "N#CC1=C(Cl)NC(Cl)=C(C#N)C1c1ccc(Cl)cc1"
  TESTED ON: "TK-10"
  VALUE: "18 µM (inactive)"
- COMPOUND: "O=C(NP(=O)(N1CC1)N1CC1)c1cc(I)ccc1I"
  TESTED ON: "TK-10"
  VALUE: "> 100 µM (inactive)"

Assign GI50 to the following record: O=C(O)c1ccccc1NCn1c(=S)sc2ccccc21
94.6 µM (inactive)

---

System: SK-MEL-2
Assay: NCI tumour cell line growth inhibition, 48 h
The source made the active and inactive calls. Rule as the data show it: active = GI50 up to about 1.1 µM and inactive = higher.
OUTCOME MEASURE: GI50

Below are worked cases with known answers.
- MOLECULE: "COC(=O)CCc1cccnc1/C=N/O"
  VALUE: "> 100 µM (inactive)"
- MOLECULE: "COc1ccc(Br)c(CN2CCc3ccccc32)c1OS(=O)(=O)c1ccc(C)cc1"
  VALUE: "21.8 µM (inactive)"
- MOLECULE: "O=C(NNc1ccc([N+](=O)[O-])cc1)C1OC(CO)C(O)C1O (configuration not stated)"
  VALUE: "> 100 µM (inactive)"
- MOLECULE: "CC(C)(C)OC(=O)NC(CSSCC(NC(=O)OC(C)(C)C)C(=O)O)C(=O)O (configuration not stated)"
  VALUE: "> 100 µM (inactive)"
- MOLECULE: "COC(=O)[C@@]12C(=O)C=CC(=O)[C@@H]1C1C(=CC2COC(C)=O)O[C@@H]2OC3(CCCCC3)O[C@H]12 (some centres not stated)"
  VALUE: "20.2 µM (inactive)"

Give GI50; test system SK-MEL-2; molecule CNC(=S)NNc1ncnc2c1ncn2-c1ccc(C)cc1
> 100 µM (inactive)

Give GI50; test system SK-MEL-2; molecule O=C(CCC(=O)OCC1OC(O)(CC2OC(CO)C(O)C(O)C2O)C(O)C1O)OCc1ccccc1 (configuration not stated)
> 100 µM (inactive)
